Hey, just so you know, these numbers are from the supplement of paper PMC5908809.

Please go through the items and note down their percent inhibition of viability.
- Test system: normal primary NK cells, pool 3 (3 donors) (IL-2 2.5 ng/mL);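 further: normalised to DMSO-only wells as negative and benzethonium chloride as positive control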
- experimental-protocol: percent inhibition of viability; higher = more inhibition
- condition: 72 h; 1000 nM
Give bare numbers, in %.

Please review the entries below; each comes with its answer.
[
  {
    "compound": "Cn1ncnc1[C@H]1c2n[nH]c(=O)c3cc(F)cc(c23)N[C@@H]1c1ccc(F)cc1 [Talazoparib] (max concentration tested 1000 nM)",
    "system-tested": "normal primary NK cells, pool 3 (3 donors) (IL-2 2.5 ng/mL)",
    "unit-text": "%",
    "percent inhibition of viability": 21.3
  },
  {
    "compound": "O=C(O)CC[C@H]1CC[C@@](c2cc(F)ccc2F)(S(=O)(=O)c2ccc(Cl)cc2)CC1 [MK-0752] (max concentration tested 1000 nM)",
    "system-tested": "normal primary NK cells, pool 3 (3 donors) (IL-2 2.5 ng/mL)",
    "unit-text": "%",
    "percent inhibition of viability": 3.93
  },
  {
    "compound": "C=CCN(/C=C1/C(=O)O[C@H](COC)[C@@]2(C)C1=C(O)C(=O)C1=C2[C@H](OC(C)=O)C[C@]2(C)C(=O)CC[C@@H]12)CC=C [Sonolisib] (max concentration tested 10000 nM)",
    "system-tested": "normal primary NK cells, pool 3 (3 donors) (IL-2 2.5 ng/mL)",
    "unit-text": "%",
    "percent inhibition of viability": 4.05
  },
  {
    "compound": "COC(=O)N[C@@H](C)CNc1nccc(-c2cn(C(C)C)nc2-c2cc(Cl)cc(NS(C)(=O)=O)c2F)n1 [Encorafenib] (max concentration tested 1000 nM)",
    "system-tested": "normal primary NK cells, pool 3 (3 donors) (IL-2 2.5 ng/mL)",
    "unit-text": "%",
    "percent inhibition of viability": -4.56
  },
  {
    "compound": "CNC(=O)c1ccccc1Sc1ccc2c(/C=C/c3ccccn3)n[nH]c2c1 [Axitinib] (max concentration tested 10000 nM)",
    "system-tested": "normal primary NK cells, pool 3 (3 donors) (IL-2 2.5 ng/mL)",
    "unit-text": "%",
    "percent inhibition of viability": 1.12
  },
  {
    "compound": "CC/C(=C(\\c1ccccc1)c1ccc(OCCN(C)C)cc1)c1ccccc1 [Tamoxifen] (max concentration tested 10000 nM)",
    "system-tested": "normal primary NK cells, pool 3 (3 donors) (IL-2 2.5 ng/mL)",
    "unit-text": "%",
    "percent inhibition of viability": -1.54
  },
  {
    "compound": "Nc1ccccc1NC(=O)c1ccc(CNc2nccc(-c3cccnc3)n2)cc1 [Mocetinostat] (max concentration tested 10000 nM)",
    "system-tested": "normal primary NK cells, pool 3 (3 donors) (IL-2 2.5 ng/mL)",
    "unit-text": "%",
    "percent inhibition of viability": 57.3
  },
  {
    "compound": "CC(C)N(C[C@H]1O[C@@H](n2cnc3c(N)ncnc32)[C@H](O)[C@@H]1O)[C@H]1C[C@@H](CCc2nc3cc(C(C)(C)C)ccc3[nH]2)C1 [Pinometostat] (max concentration tested 1000 nM)",
    "system-tested": "normal primary NK cells, pool 3 (3 donors) (IL-2 2.5 ng/mL)",
    "unit-text": "%",
    "percent inhibition of viability": -1.92
  }
]

Report percent inhibition of viability for each item below.
1. Cc1ccc(-n2nc(C(C)(C)C)cc2NC(=O)Nc2ccc(OCCN3CCOCC3)c3ccccc23)cc1 [Doramapimod] (max concentration tested 10000 nM)
2. O=C(NC[C@H](O)CO)c1ccncc1Nc1ccc(I)cc1F [Pimasertib] (max concentration tested 10000 nM)
3. N#Cc1ccc2[nH]c(O)c(-c3ccc(CN4CCOCC4)cn3)c2c1 [AZD-1080] (max concentration tested 10000 nM)
4. CO[C@H](C(=O)[C@@H](O)[C@@H](C)O)[C@@H]1Cc2cc3cc(O[C@H]4C[C@@H](O[C@@H]5C[C@@H](O)[C@H](O)[C@@H](C)O5)[C@H](O)[C@@H](C)O4)c(C)c(O)c3c(O)c2C(=O)[C@H]1O[C@H]1C[C@@H](O[C@@H]2C[C@@H](O)[C@@H](O[C@@H]3C[C@](C)(O)[C@H](O)[C@@H](C)O3)[C@@H](C)O2)[C@H](O)[C@@H](C)O1 [Plicamycin] (max concentration tested 10000 nM)
5. CC1(COc2ccc3c(c2)ncn3-c2ccc3cccc(N4CCC(N)CC4)c3n2)COC1 [Crenolanib] (max concentration tested 10000 nM)
6. NC(=O)c1cccc(-c2cccc(OC(=O)NC3CCCCC3)c2)c1 [URB597] (max concentration tested 1000 nM)
7. CN(C)CCN1C(=O)c2cccc3cc(N)cc(c23)C1=O [Amonafide] (max concentration tested 10000 nM)

2.15
-6.25
-9.63
56.1
22.4
6.07
8.95
